tested on: Pseudomonas fluorescens HPPD polypeptide (wild-type and mutants); assay: Coupled HPPD activity assay: turnover and residual turnover in crude HPPD polypeptide extracts with and without Cmpd. 1; assay type: biochemical; settings: presence of 100 μM Cmpd. 1; changes in absorbance (OD) at 320 nm in the coupled assay, 30 min
readout label: Residual turnover
Response field accepts a number only; no unit should be typed.

Before answering, review these 6 worked examples.
{"columns": ["molecule", "result value"],
 "data": [
  ["SEQ ID NO:19 (protein, mutant HPPD polypeptide) MADLYENPMGLMGFEFIEFASPTPGTLEPIFEIMGFTKVATHRSKNVHLYRQGEINLILNNEPNSIASYFAAEHGPSVCGMAFRVKDSQKAYNRALELGAQPIHIDTGPMELNLPAIKGIGGAPLYLIDRFGEGSSIYDIDFVYLEGVERNPVGAGLKVIDHLTHNVYRGRMVYWANFYEKLFNFREARYFDIKGEYTGLTSKAMSAPDGMIRIPLNEESSKGAGQIEEFLMQFNGEGIQHVAFLTDDLVKTWDALKKIGMRFMTAPGDEYYEMLEGRLPDHGEPVDQLQARGILLDGSSVEGDKRLLLQIFSEQLMGPVFFEFIQRKGDDGFGPDSFKVLFEQMERDQVRRGVLTAD", 0.087],
  ["SEQ ID NO:2 (protein, mutant HPPD polypeptide) MADLYENPMGLMGFEFIEFASPTPGTLEPIFEIMGFTKVATHRSKNVHLYRQGEINLILNNEPNSIASYFAAEHGPSVCGMAFRVKDSQKAYNRALELGAQPIHIDTGPMELNLPAIKGIGGAPLYLIDRFGEGSSIYDIDFVYLEGVERNPVGAGLKVIDHLTHNVYRGRMVYWANFYEKLFNFREARYFDIKGEYTGLTSKAMSAPDGMIRIPLNEESSKGAGQIEEFLMQFNGEGIQHVAFLTDDLVKTWDALKKIGMRFMTAPPDTYYEMLEGRLPDHGEPVDQLQARGILLDGSSVEGDKRLLLQIFSETLMGPVFFEFIQRKGDDGFGPWNFAQLFESIERDQVRRGVLTAD", 0.041],
  ["SEQ ID NO:28 (protein, mutant HPPD polypeptide) MADLYENPMGLMGFEFIEFASPTPGTLEPIFEIMGFTKVATHRSKNVHLYRQGEINLILNNEPNSIASYFAAEHGPSVCGMAFRVKDSQKAYNRALELGAQPIHIDTGPMELNLPAIKGIGGAPLYLIDRFGEGSSIYDIDFVYLEGVERNPVGAGLKVIDHLTHNVYRGRMVYWANFYEKLFNFREARYFDIKGEYTGLTSKAMSAPDGMIRIPLNEESSKGAGQIEEFLMQFNGEGIQHVAFLTDDLVKTWDALKKIGMRFLTAPGDEYYEMLEGRLPDHGEPVDQLQARGILLDGSSVEGDKRLLLQIFSETLMGPVFFEFIQRKGDDGFGPHSFKVLFESIERDQVRRGVLTAD", 0.102],
  ["SEQ ID NO:10 (protein, mutant HPPD polypeptide) MADLYENPMGLMGFEFIEFASPTPGTLEPIFEIMGFTKVATHRSKNVHLYRQGEINLILNNEPNSIASYFAAEHGPSVCGMAFRVKDSQKAYNRALELGAQPIHIDTGPMELNLPAIKGIGGAPLYLIDRFGEGSSIYDIDFVYLEGVERNPVGAGLKVIDHLTHNVYRGRMVYWANFYEKLFNFREARYFDIKGEYTGLTSKAMSAPDGMIRIPLNEESSKGAGQIEEFLMQFNGEGIQHVAFLTDDLVKTWDALKKIGMRFMTAPGDEYYEMLEGRLPDHGEPVDQLQARGILLDGSSVEGDKRLLLQIFSEKLMGPVFFEFIQRKGDDGFGPDSFKVLFEQIERDQVRRGVLTAD", 0.021],
  ["SEQ ID NO:4 (protein, mutant HPPD polypeptide) MADLYENPMGLMGFEFIEFASPTPGTLEPIFEIMGFTKVATHRSKNVHLYRQGEINLILNNEPNSIASYFAAEHGPSVCGMAFRVKDSQKAYNRALELGAQPIHIDTGPMELNLPAIKGIGGAPLYLIDRFGEGSSIYDIDFVYLEGVERNPVGAGLKVIDHLTHNVYRGRMVYWANFYEKLFNFREARYFDIKGEYTGLTSKAMSAPDGMIRIPLNEESSKGAGQIEEFLMQFNGEGIQHVAFLTDDLVKTWDALKKIGMRFMTAPGDEYYEMLEGRLPDHGEPVDQLQARGILLDGSSVEGDKRLLLQIFSEQLMGPVFFEFIQRKGDDGFGPDSFKVLFESIERDQVRRGVLTAD", 0.06],
  ["SEQ ID NO:49 (protein, mutant HPPD polypeptide) MADLYENPMGLMGFEFIEFASPTPGTLEPIFEIMGFTKVATHRSKNVHLYRQGEINLILNNEPNSIASYFAAEHGPSVCGMAFRVKDSQKAYNRALELGAQPIHIDTGPMELNLPAIKGIGGAPLYLIDRFGEGSSIYDIDFVYLEGVERNPVGAGLKVIDHLTHNVYRGRMVYWANFYEKLFNFREARYFDIKGEYTGLTSKAMSAPDGMIKIPLNEESSKGAGQIEEFLMQFNGEGIQHVAFLTDDLVKTWDALKKIGMRFMTAPGDEYYEMLEGRLPDHGEPVDQLQARGILLDGSSVEGDKRLLLQIFSEQLMGPVFFEFIQRKGDDGFGPHSFKVLFESIERDQVRRGVLTAD", 0.165]
]}

Now for a further molecule.
**Query** // lookup Residual turnover for SEQ ID NO:57 (protein, mutant HPPD polypeptide) MADLYENPMGLMGFEFIEFASPTPGTLEPIFEIMGFTKVATHRSKNVHLYRQGEINLILNNEPNSIASYFAAEHGPSVCGMAFRVKDSQKAYNRALELGAQPIHIDTGPMELNLPAIKGIGGAPLYLIDRFGEGSSIYDIDFVYLEGVERNPVGAGLKVIDHLTHNVYRGRMVYWANFYEKLFNFREARYFDIKGEYTGLTSKAMSAPDGMIKIPLNEESSKGAGQIEEFLMQFNGEGIQHVAFLTDDLVKTWDALKKIGMRFMTAPGDEYYEMLEGRLPDHGEPVDQLQARGILLDGSSVEGDKRLLLQIFSEQLMGPVFFEFIQRKGDDGFGPHSFKVLFEQMERDQVRRGVLTAD
**Result** 0.232

The values you see were collected from patent US11371056B2.
